# maps each entry to its EC50
System: Hippocampal Cultures
Assay: Neuroprotection from hydrogen peroxide (oxidative stress), propidium iodide assay
Assay type: cell-based
Settings: Rattus norvegicus, 4 h, read-out: NP from Hydrogen Peroxide PI EC50
measured-quantity: EC50 (nM)

INSERT INTO assay_data (compound, endpoint_unit, reading) VALUES
  ('NS(=O)(=O)NCC(F)(F)c1csc2ccccc12', 'nM', 1),
  ('NS(=O)(=O)NCC(F)c1ccccc1F (stereo not drawn)', 'nM', 0.01),
  ('COc1ccccc1C(F)(F)CNS(N)(=O)=O', 'nM', 1);

----------
Tested on: Hippocampal Cultures
Test: Neuroprotection from heavy metal toxicity, CFDA assay
Type: cell-based, rat
Conditions: Rattus norvegicus, Copper Acetate monohydrate 10 μM
pEC50: −log10 of the molar value.
measured-quantity: pEC50

INSERT INTO results (smi, reading) VALUES
  ('NS(=O)(=O)NCC(F)(F)c1ccccc1F', 10.00);

----------
# maps each entry to its EC50
System: Hippocampal Cultures
Assay: Neuroprotection from hydrogen peroxide (oxidative stress), CFDA assay
Assay type: cell-based
Conditions: Rattus norvegicus; 10 μM hydrogen peroxide, hippocampal cultures, 4 hour test period; read-out: NP from Hydrogen Peroxide CFDA EC50
measured-quantity: EC50 (nM)

INSERT INTO measurements (compound, reading) VALUES
  ('NS(=O)(=O)NCC(F)(F)c1ccccc1F [Example 1]', 1),
  ('NS(=O)(=O)NCC(F)(F)c1ccccc1Cl [Example 2]', 0.1),
  ('NS(=O)(=O)NCC(F)(F)c1ccccc1 [Example 5, 2,2-difluoro-2-phenyl-ethyl-1-sulfamide]', 0.1);

----------
Test system: Hippocampal Cultures
Assay: Neuroprotection from heavy metal toxicity, propidium iodide assay
Type: cell-based
Conditions: Rattus norvegicus, Zinc Acetate dehydrate 1 μM; read-out: Neuroprotection EC50 PI
measured-quantity: EC50 (nM)

INSERT INTO assay_data (smi, measured_quantity, endpoint_unit, reading) VALUES
  ('NS(=O)(=O)NCC(F)(F)c1ccccc1F', 'EC50', 'nM', 0.01);

----------
System: Hippocampal Cultures
Test: Neuroprotection from heavy metal toxicity, propidium iodide assay
Assay type: cell-based
Details: Rattus norvegicus, Iron sulfate hexahydrate 10 μM; read-out: Neuroprotection EC50 PI
pEC50: −log10 of the molar value.
measured-quantity: pEC50

INSERT INTO measurements (smi, reading) VALUES
  ('NS(=O)(=O)NCC(F)(F)c1ccccc1F', 11.00);

----------
# maps each entry to its Loss of neuronal viability from metal
Tested on: hippocampal neurons
Assay: Heavy metal toxicity in hippocampal cultures, neuronal viability (CFDA)
Conditions: test concentration of metal ions 10 μM, medium without antioxidants
Procedure: All compounds were screened with dissociated hippocampal cultures derived from embryonic day 18 rats as the primary test system. With this preparation, primary neurons were used to test for prevention of heavy metal toxicity by the disclosed compounds. […] Toxicity produced by heavy metals is measured by decreases in neuronal viability. […]
measured-quantity: Loss of neuronal viability from metal

INSERT INTO assay_data (molecule, reading) VALUES
  ('CC(=O)[O-].CC(=O)[O-].O.[Cu+2] [Copper Acetate monohydrate]', '47%'),
  ('O.O.O.O.O.O.[Cl-].[Cl-].[Co+2] [Cobalt Chloride hexahydrate]', '36%'),
  ('O.O.O.O.O.O.[Cl][Ni][Cl] [Nickel Chloride hexahydrate]', '33%'),
  ('O.O.O.O.O.O.O=S(=O)([O-])[O-].[Fe+2] [Iron sulfate hexahydrate]', '31%');
